Recorded values, source ChEMBL document CHEMBL4811221.

System: L02
experimental protocol: Cytotoxicity against human L02 cells assessed as cell growth inhibition measured after 24 hrs by MTT assay
Format: cell-based
condition info: L02, 24 h
measured attribute: pIC50
Expect pIC50 as a plain number equal to -log10 of the molar concentration.

// known answers, use as guide
# input Bench note: what pIC50 did "C[C@@H]1CC[C@@]2(OC1)O[C@H]1C[C@H]3[C@@H]4CC=C5C[C@@H](OC(=O)CCCC(=O)N6CCNCC6)CC[C@]5(C)[C@H]4CC[C@]3(C)[C@H]1[C@@H]2C" show?
# output 4.83

# input Do the same for "C[C@@H]1CC[C@@]2(OC1)O[C@H]1C[C@H]3[C@@H]4CC=C5C[C@@H](OC(=O)CCC(=O)N6CCOCC6)CC[C@]5(C)[C@H]4CC[C@]3(C)[C@H]1[C@@H]2C" please
# output 4.46

# input Do the same for "C[C@@H]1CC[C@@]2(OC1)O[C@H]1C[C@H]3[C@@H]4CC=C5C[C@@H](OC(=O)CCC(=O)N6CCNCC6)CC[C@]5(C)[C@H]4CC[C@]3(C)[C@H]1[C@@H]2C" please
# output 4.73

# input Do the same for "C[C@@H]1CC[C@@]2(OC1)O[C@H]1C[C@H]3[C@@H]4CC=C5C[C@@H](OC(=O)/C=C\C(=O)N6CCNCC6)CC[C@]5(C)[C@H]4CC[C@]3(C)[C@H]1[C@@H]2C" please
# output 4.41

# input Do the same for "COc1ccc(C[N+]2(Cc3ccc(OC)cc3)CCN(C(=O)CCC(=O)O[C@H]3CC[C@@]4(C)C(=CC[C@H]5[C@@H]6C[C@@H]7O[C@]8(CC[C@@H](C)CO8)[C@@H](C)[C@@H]7[C@@]6(C)CC[C@@H]54)C3)CC2)cc1" please
# output 4.63

More entries:
# input Bench note: what pIC50 did "C[C@@H]1CC[C@@]2(OC1)O[C@H]1C[C@H]3[C@@H]4CC=C5C[C@@H](OC(=O)c6ccccc6C(=O)N6CCNCC6)CC[C@]5(C)[C@H]4CC[C@]3(C)[C@H]1[C@@H]2C" show?
# output 4.56
